- Measurement target: Microphthalmia-associated transcription factor (Homo sapiens, UniProt O75030)
- Sequence (O75030 whole entry): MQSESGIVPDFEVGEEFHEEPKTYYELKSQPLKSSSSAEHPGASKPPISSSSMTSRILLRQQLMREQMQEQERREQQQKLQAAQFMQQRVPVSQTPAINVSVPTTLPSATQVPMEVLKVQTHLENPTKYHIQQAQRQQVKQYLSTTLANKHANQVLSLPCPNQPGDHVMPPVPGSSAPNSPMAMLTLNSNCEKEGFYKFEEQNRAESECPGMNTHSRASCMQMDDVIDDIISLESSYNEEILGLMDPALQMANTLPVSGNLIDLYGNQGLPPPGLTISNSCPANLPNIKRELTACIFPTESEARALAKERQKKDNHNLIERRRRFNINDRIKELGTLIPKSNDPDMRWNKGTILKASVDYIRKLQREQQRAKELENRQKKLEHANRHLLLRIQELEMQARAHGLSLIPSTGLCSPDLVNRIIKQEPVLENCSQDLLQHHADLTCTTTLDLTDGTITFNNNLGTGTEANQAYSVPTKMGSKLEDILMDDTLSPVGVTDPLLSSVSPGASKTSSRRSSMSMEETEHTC
- Experiment summary: TRPM1 promoter luciferase signal decrease, dose response, MITF inhibitor project, cell-based, SK-MEL-5, cherry-picked, set 3 (AID 493073);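 further: SK-MEL-5 melanoma cells with luciferase driven by the MITF target TRPM1 promoter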
- Format: functional
Active and inactive are the calls of the source.
Endpoint: AC50

Reference set (4 entries):
Molecule	AC50
Cc1cc(C(=O)Nc2cccc(C(=O)O)c2)oc1C	4.35 µM (active)
COc1cc(/C=N/NS(=O)(=O)c2ccc3ccccc3c2)ccc1OCc1ccc(C(=O)O)cc1	4.78 µM (active)
CC1CCC(C(C)C)C(OC(=O)Cn2c(-c3ccc(F)cc3)[n+](C)c3ccccc32)C1 (stereo not drawn)	5.57 µM (active)
CC(=O)Nc1sc(C)c(C)c1C(=O)OCC(=O)N(CC(C)C)c1c(N)n(Cc2ccccc2)c(=O)[nH]c1=O	5.29 µM (active)

--- query ---
Indicate the recorded AC50 value for this molecule: O=C1NC(=O)N(Cc2ccccc2Cl)C(=O)/C1=C/c1cccs1
29.7 µM (active)

* * *

- Measurement target: Heat shock factor protein 1 (Mus musculus)
- Sequence (P38532 whole entry): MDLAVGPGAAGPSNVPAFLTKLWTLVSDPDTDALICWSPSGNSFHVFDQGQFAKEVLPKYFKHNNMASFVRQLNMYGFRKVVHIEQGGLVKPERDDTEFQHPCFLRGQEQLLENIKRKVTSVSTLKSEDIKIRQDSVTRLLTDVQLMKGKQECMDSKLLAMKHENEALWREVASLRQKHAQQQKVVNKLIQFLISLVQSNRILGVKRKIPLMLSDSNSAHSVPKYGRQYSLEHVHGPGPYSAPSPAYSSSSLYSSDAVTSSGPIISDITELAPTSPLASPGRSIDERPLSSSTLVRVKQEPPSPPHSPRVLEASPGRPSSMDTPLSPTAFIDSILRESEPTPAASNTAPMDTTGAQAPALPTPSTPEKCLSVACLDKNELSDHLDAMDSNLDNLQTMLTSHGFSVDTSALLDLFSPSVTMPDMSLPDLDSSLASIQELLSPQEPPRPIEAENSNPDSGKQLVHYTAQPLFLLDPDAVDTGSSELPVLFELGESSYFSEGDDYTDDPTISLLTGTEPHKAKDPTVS
- Experiment summary: HSF1 potentiators in luciferase reporter cells, confirmation, cell-based, NIH3T3, luminescence, dose retest (AID 435004);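 further: stress induced by proteasome inhibitor MG132 added 30 min after compound; luciferase reporter driven by HSF1 response element in NIH3T3 cells; actives raise luminescence as potentiators of the MG132 stress response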
- Type: functional
Calls of active or inactive are those of the source.
Use one of these outcomes when replying: active, inactive

Compound	Classification
O=C1CC(NNc2ccccc2)C(=O)N1c1ccccc1 (stereo not drawn)	inactive
NCCc1nnc(SCc2ccc(F)cc2)o1	inactive
COCC(C)NC(=O)/C(=C/c1ccccc1)c1ccccc1 (stereo not drawn)	inactive
CCOC(=O)C(C(=O)OCC)C(Nc1ccc(Br)cc1)c1ccccc1 (stereo not drawn)	active
COc1ccc(/C=C/C(=O)C23CC4CC(CC(C4)C2)C3)cc1CN1CCOCC1	active
NC(=O)c1nsc(C(=O)N(c2ccccc2)C(C(=O)NCC2CCCO2)c2cccs2)c1N (stereo not drawn)	inactive

What outcome does the record of this test show for Cc1ccc(NN2C(=O)C=C(c3ccccc3)C2=O)cc1 ?
active

* * *

The compounds listed here are annotated with their IC50.
- Measurement target: Type-1 angiotensin II receptor (Homo sapiens)
- Sequence (P30556 whole entry): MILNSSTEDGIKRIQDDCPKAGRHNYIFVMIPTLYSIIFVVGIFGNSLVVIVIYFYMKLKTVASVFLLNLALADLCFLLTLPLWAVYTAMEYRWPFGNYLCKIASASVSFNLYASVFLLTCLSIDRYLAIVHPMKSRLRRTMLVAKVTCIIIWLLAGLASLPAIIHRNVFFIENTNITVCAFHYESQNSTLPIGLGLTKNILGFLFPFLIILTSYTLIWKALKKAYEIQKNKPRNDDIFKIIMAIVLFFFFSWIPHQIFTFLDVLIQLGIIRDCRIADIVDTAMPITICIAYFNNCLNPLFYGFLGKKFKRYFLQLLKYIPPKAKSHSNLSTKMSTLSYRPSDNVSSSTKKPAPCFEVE
- Experiment summary: AT1 receptor antagonists, dose response, selectivity assay for APJ receptor antagonist project, cell-based, uHTS hits (AID 463214);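 further: antagonist potency against angiotensin II stimulated AT1 response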
- Type: functional
Activity calls are given as the source filed them.

Reference set (3 entries):
Cc1ccc(C(=O)COC(=O)c2ccncc2)cc1[N+](=O)[O-] 20 µM (active)
Cc1cc(C)nc(NNS(=O)(=O)c2ccc(Cl)cc2)n1 > 40 µM (not active)
Cc1ccc(NNC(=O)c2c(C)noc2C)cc1Cl 5.22 µM (active)

--- query ---
Indicate the recorded IC50 value for this compound: NNc1nc(-c2ccccc2)cc(-c2ccccc2O)n1
4.2 µM (active)

* * *

The compounds listed here are annotated with their AC50.
- Measurement target: Cytochrome P450 1A2 (Homo sapiens);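 further: PubChem cytochrome P450 panel assay, CYP1A2 panel member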
- Sequence (P05177 whole entry): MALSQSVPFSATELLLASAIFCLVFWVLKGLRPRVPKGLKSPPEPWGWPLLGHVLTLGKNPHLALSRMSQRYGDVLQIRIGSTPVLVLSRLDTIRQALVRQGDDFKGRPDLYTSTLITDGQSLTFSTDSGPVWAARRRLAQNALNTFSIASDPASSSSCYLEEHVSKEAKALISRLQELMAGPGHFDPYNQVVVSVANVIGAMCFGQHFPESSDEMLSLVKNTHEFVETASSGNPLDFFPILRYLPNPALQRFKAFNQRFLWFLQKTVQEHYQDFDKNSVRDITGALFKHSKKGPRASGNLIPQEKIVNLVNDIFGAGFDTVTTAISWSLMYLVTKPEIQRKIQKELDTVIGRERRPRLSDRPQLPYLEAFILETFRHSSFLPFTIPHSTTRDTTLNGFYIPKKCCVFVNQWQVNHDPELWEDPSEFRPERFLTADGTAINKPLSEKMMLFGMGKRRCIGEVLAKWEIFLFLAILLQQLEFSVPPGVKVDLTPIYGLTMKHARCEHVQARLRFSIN

Reference set (5 entries):
Compound	AC50
Cn1cc(-c2nc3cnc(Oc4ccccc4)nc3n(CCC#N)c2=O)c2ccccc21	3.16 µM (inconclusive)
CCOc1cc(/C=N/NC(=O)CNc2cccc(C)c2)ccc1OC(=O)c1ccccc1	14.1 µM (inconclusive)
Cc1ccc(Nc2nc(-c3sc(NC(=O)c4cccc(Cl)c4)nc3C)cs2)cc1	14.1 µM (inconclusive)
Nc1ccccc1/N=N\c1c(S(=O)(=O)O)cc2cc(S(=O)(=O)O)cc(O)c2c1O	6.31 µM (inconclusive)
CCN1CCC[C@@H](OC(=O)C(c2ccccc2)c2ccccc2)C1 [PIPERIDOLATE]	0.00126 µM (inconclusive)

Indicate the recorded AC50 value for this compound: N/C(CSS(=O)(=O)O)=N\[C@@H]1C[C@H]2CC[C@@H]1C2
10 µM (inconclusive)

Indicate the recorded AC50 value for this compound: CCCN(C/C=C\I)[C@@H]1CCc2ccc(O)cc2C1
25.1 µM (inconclusive)

Indicate the recorded AC50 value for this compound: CC(C)(C)c1ccc(OCC(=O)N/N=C/c2cc(Br)ccc2OC(=O)c2ccco2)cc1
5.01 µM (inconclusive)

Indicate the recorded AC50 value for this compound: COC(=O)[C@@]1(Cc2ccc(F)cc2)[C@H]2c3cc(C(=O)N4CCCC4)n(Cc4ccccc4)c3C[C@H]2CN1C(=O)c1ccccc1
20 µM (inconclusive)

* * *

The molecules listed here are annotated with their IC50.
- Measurement target: Leucine aminopeptidase (Plasmodium falciparum 3D7, UniProt Q8IL11)
- Sequence (Q8IL11 whole entry): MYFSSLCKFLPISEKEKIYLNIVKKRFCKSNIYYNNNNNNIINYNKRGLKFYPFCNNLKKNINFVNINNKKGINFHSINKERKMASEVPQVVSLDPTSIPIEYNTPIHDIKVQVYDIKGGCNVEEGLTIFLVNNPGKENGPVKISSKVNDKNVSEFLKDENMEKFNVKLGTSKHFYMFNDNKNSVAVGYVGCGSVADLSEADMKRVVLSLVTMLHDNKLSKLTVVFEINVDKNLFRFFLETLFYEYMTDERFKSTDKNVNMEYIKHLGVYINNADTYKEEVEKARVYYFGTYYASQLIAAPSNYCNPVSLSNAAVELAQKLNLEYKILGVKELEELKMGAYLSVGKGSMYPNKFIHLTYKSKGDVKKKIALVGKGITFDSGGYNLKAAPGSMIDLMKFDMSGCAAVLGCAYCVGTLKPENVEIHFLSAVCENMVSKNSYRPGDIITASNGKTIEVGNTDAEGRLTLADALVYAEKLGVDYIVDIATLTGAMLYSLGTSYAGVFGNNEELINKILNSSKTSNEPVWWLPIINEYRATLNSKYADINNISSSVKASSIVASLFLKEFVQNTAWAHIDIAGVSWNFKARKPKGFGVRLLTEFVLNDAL
- Experiment summary: P. falciparum M17LAP inhibitors, primary screen, biochemical, fluorogenic H-Leu-NHMec substrate, 1536-well (AID 1619)
- Type: functional
The source made the active and inactive calls.

Reference set (4 entries):
Molecule	IC50
CCOc1cc(/C=C2\S/C(=N\c3ccccc3)N(c3ccccc3)C2=O)ccc1OCC(=O)O	31.3 µM (active)
Cc1ccc(-c2ccc(/C=N/NC3=NC(=O)C(CC(=O)O)S3)o2)c([N+](=O)[O-])c1 (stereo not given)	101 µM (active)
O=C(O)c1ccc(/C=N/NC(=O)c2cc(-c3ccc4c5c(cccc35)CC4)[nH]n2)cc1	26.8 µM (active)
O=C1/C(=C/c2cccs2)NC(=S)N1C1CC1	6.44 µM (active)

--- query ---
Indicate the recorded IC50 value for this molecule: C/C(CCC1CC(C)OC1=O)=N/Nc1nc(-c2ccccc2)cs1 (stereo not given)
30.8 µM (active)

* * *

The compounds listed here are annotated with their IC50.
- Measurement target: Low molecular weight phosphotyrosine protein phosphatase (Homo sapiens, UniProt P24666);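 further: Dose-response confirmation assay measuring inhibition of LMPTP enzyme activity by fluorescence intensity read-out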
- Sequence (P24666 whole entry): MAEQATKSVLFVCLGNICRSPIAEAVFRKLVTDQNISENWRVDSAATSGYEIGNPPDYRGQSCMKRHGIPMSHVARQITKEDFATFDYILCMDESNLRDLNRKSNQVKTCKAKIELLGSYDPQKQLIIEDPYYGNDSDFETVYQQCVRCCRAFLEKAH
- Format: functional
- Condition notes: read-out: IC50_Mean
Active and inactive are the calls of the source.

Compound	IC50
O=C1CC(c2ccco2)Cc2nc(Nc3nc(-c4ccccc4)c4ccccc4n3)ncc21 (centres undefined)	10.9 µM (active)
COc1cccc(CNc2nc(NCC3CC3)nc3ccsc23)c1OC	11.5 µM (active)
CN(C)c1ccc(/C=N/NC(=O)c2nnn(-c3nonc3N)c2COc2ccc(F)cc2)cc1	12 µM (active)

--- query ---
Answer briefly: IC50 recorded on Low molecular weight phosphotyrosine protein phosphatase (Homo sapiens, UniProt P24666) for CC(Nc1nc(N2CCNCC2)nc2ccccc12)c1ccccc1 (centres undefined)
13.8 µM (active)
